- Tested on: MCF-7 human breast cancer cells
- assay-remarks: MTT cytotoxicity assay in MCF-7 cells
- Format: cell-based
- reported-conditions: Homo sapiens, MCF7, 48 h, read-out: D501, IC50 of PPMP in single treatment
attribute-measured: pIC50
# log scale: pIC50 equals minus log10 of the concentration in mol/L

What measured pIC50 goes with CCCCCCCCCCCCCCCC(=O)NC(CN1CCOCC1)C(O)c1ccccc1 (stereo not shown) ? 5.24
